Provenance of the data: patent US20210395357A1

Target: rhIL-6-His (recombinant human IL-6, Val30 to Met212, C-terminal 6 His) (human, UniProt P05231 30-212)
Sequence (P05231 other isoform, or with tags, fused parts or gaps limits assumed): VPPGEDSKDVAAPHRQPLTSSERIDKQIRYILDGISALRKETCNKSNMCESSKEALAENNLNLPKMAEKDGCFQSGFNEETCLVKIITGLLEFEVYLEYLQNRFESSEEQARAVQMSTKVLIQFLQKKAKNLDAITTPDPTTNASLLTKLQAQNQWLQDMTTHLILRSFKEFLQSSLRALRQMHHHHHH
Assay: ELISA, rhIL-6-His coated at 1 µg/ml, anti-human IgG-HRP
Procedure: The rhIL-6-His antigen was diluted with PBS (pH=8.6) to 1 μg/ml, added to a microtiter plate at 100 μl/well, coated overnight at 4° C., and blocked at 37° C. for 2 hour by adding 300 μl/well of 3% BSA after washing the plate 4 times with PBST. […] The plate was washed for 4 times with PBST, added with HRP (horseradish peroxidase) labeled goat anti-human IgG antibody (ProteinTech, SA00001-1), and incubated at 37° C. for 1 hour. […]

| binder | valueUnits | EC50 |
| --- | --- | --- |
| HZ-0408b (antibody, human IgG1, kappa, V domains shown, Humanized from murine 140-4; IgG1 type antibody from 293F cells; also called L1/H3) VH: QVTLKESGPVLVKPTETLTLTCTVSGFSLSTSGMGVGWIRQPPGKALEWLAHIWWDDDKRYNSALKSRLTISKDTSKSQVVLTMTNMDPVDTATYYCARIGGLYVDYLMDYWGQGTLVTVSS VL: EIVLTQSPDFQSVTPKEKVTITCRASQSISDYLHWYQQKPDQSPKLLIKYASQSISGVPSRFSGSGSGTDFTLTINSLEAEDAATYYCQNGHSFPWTFGQGTKVEIKR | µg/mL | 0.09 |
